Reported values of TGI for individual entries
- Test system: NCI-H226 lung
- experimentalDetails: NCI tumour cell line growth inhibition, 48 h

Below, 5 compounds whose answers are already recorded.
compound: COc1cc(Oc2nc3ccccc3nc2C(=O)O)cc(OC)c1OC
experimentalSystem: NCI-H226 lung
measure: TGI
reportedValue: > 100 µM

compound: COc1ccc([C@H]2c3cc(OC)c(OC)cc3C=C(C=O)C2CO)cc1OC (some centres not stated)
experimentalSystem: NCI-H226 lung
measure: TGI
reportedValue: > 100 µM

compound: O=C(O)CC(NC(=O)Nc1ccc([N+](=O)[O-])cc1)C(=O)Nc1ccc([N+](=O)[O-])cc1 (configuration not stated)
experimentalSystem: NCI-H226 lung
measure: TGI
reportedValue: > 100 µM

compound: C[C@]12CC[C@H]3[C@@H](CCC4=CC(=O)C=C[C@@]43O)[C@@H]1CCC2=O
experimentalSystem: NCI-H226 lung
measure: TGI
reportedValue: > 100 µM

compound: COC(=O)c1c(OC(C)=O)ccc2c1c1c(OC(C)=O)c3ccccc3c(OC(C)=O)c1n2Cc1cc(OC)cc(OC)c1
experimentalSystem: NCI-H226 lung
measure: TGI
reportedValue: > 100 µM

// TGI value for CCSc1ncnc2c(C3OC(CO)C(O)C3O)nsc12 (configuration not stated) : > 100 µM

// TGI value for CC1(C)C2CCC1(CS(=O)(=O)Nc1ccccc1)C(=O)C2 (configuration not stated) : > 100 µM

// TGI value for CCOC(=O)C1=CN=C2C(=O)N(c3ccccc3)N(C)C2(C)C1=N (configuration not stated) : > 100 µM

// TGI value for "CCc1nc(N)nc(N)c1-c1ccc(Cl)cc1" : > 100 µM

// TGI value for "O=C(O)Cc1ccc(Oc2nc3ccccc3nc2-c2cccs2)cc1" : > 100 µM

----------
Reported values of TGI for individual entries
- System: MDA-MB-231 breast
- experimentalDetails: NCI tumour cell line growth inhibition, 48 h

Below, 6 molecules whose answers are already recorded.
molecule: CC1CN(CCO)CC(C)O1 (configuration not stated)
TGI: > 100 µM

molecule: COc1ccc2c(c1)OCC1(O)Cc3ccccc3OC21 (configuration not stated)
TGI: > 100 µM

molecule: CC(C)(C)c1cc(C(O)(C(=O)O)C(=O)O)cc(C(C)(C)C)c1O
TGI: > 100 µM

molecule: Cc1cc2c(-c3nc4ccccc4[nH]3)c(O)c(O)cc2c(O)c1-c1c(C)cc2c(-c3nc4ccccc4[nH]3)c(O)c(O)cc2c1O
TGI: > 38.9 µM

molecule: O=C(O)Cc1ccc(Oc2nc3ccccc3nc2-c2cccs2)cc1
TGI: > 100 µM

molecule: Cc1nc2c(cnn2-c2ccnc3c(C(F)(F)F)cccc23)c(=O)o1
TGI: > 100 µM

Now consider a different molecule.
// TGI value for "O=C(Cn1ccnc1[N+](=O)[O-])NCCO" : > 100 µM

----------
- System: BT-549 breast
- experimentalDetails: NCI tumour cell line growth inhibition, 48 h; in the data active means GI50 below about 0.43 µM; inactive means the rest
Can you answer with just one of these options? T (active), F (inactive)

Before answering, review these 5 worked examples.
compound: CC(=O)O[C@@H]1C=CC(=O)C2(CC(=O)O[C@@H]2/C=C(\C)CCC=C(C)C)C1 (stereo partly drawn)
classLabel: F

compound: Cc1nc2c(cnn2-c2ccnc3c(C(F)(F)F)cccc23)c(=O)o1
classLabel: F

compound: COc1ccccc1/C=C1\COc2ccc(O)c(O)c2C1=O
classLabel: F

compound: C(=N\Nc1ncc(-c2cc3cc4c(cc3o2)OCO4)s1)/c1c[nH]c2ccccc12
classLabel: F

compound: O=C1CCC/C=C\C[C@H]2C=C(Cl)C(=O)/C2=C/C[C@H](CCCCC(F)(F)F)OC(=O)CCC/C=C\C[C@H]2C=C(Cl)C(=O)/C2=C/C[C@H](CCCCC(F)(F)F)O1
classLabel: T

Please state the recorded outcome for this compound: "COC12C=C/C(=C(/C(=O)OCc3ccncn3)C(=O)CCCCCCCCC3(OC)C=C/C(=C(/C(=O)OCc4ccncn4)C(=O)CCCCCCCC1)O3)O2"
T

Please state the recorded outcome for this compound: "CC/C(=C(\c1ccccc1)c1ccc(OCCN(C)C)cc1)c1ccccc1"
F

Please state the recorded outcome for this compound: "Cc1ccc(CCC(=O)Nc2ncc(Cc3cc(Cl)ccc3Cl)s2)o1"
T

----------
- Tested on: SK-OV-3 ovarian
- experimentalDetails: NCI tumour cell line growth inhibition, 48 h
Label 1 when TGI is at or above 20 µM; anything below gets -1.

compound: O=C(CCc1cccc(O)c1)NCCc1cccc(O)c1
experimentalSystem: SK-OV-3 ovarian
classLabel: 1

Answer whether TGI of "CCOC(=O)C(=[N+]=[N-])C(=O)C[N+]12CCN(CC1)CC2" is greater than or equal to 20 µM.
1

Answer whether TGI of "O=C1COC(c2ccccc2O)=NN1CCCN1CCCC1" is greater than or equal to 20 µM.
1

Answer whether TGI of "C/C(O)=C/c1nc2ccccc2nc1/C=C(/C)O" is greater than or equal to 20 µM.
1

Answer whether TGI of COc1ccc2c(c1)OCC1(O)Cc3ccccc3OC21 (stereo not given) is greater than or equal to 20 µM.
1

Answer whether TGI of "CC(C)(C)c1cc(C(O)(C(=O)O)C(=O)O)cc(C(C)(C)C)c1O" is greater than or equal to 20 µM.
1

Answer whether TGI of "N/C(=N\N=C\c1ccc2c(c1)OCO2)NO" is greater than or equal to 20 µM.
1

Answer whether TGI of "COc1c(O)c2ccccc2c2cc(O)ccc12" is greater than or equal to 20 µM.
1

Answer whether TGI of "O=c1c2ccccc2oc2c1ccc1ncccc12" is greater than or equal to 20 µM.
1

Answer whether TGI of COc1ccc(C(=O)CC2(O)C(=O)Nc3c(Cl)ccc(Cl)c32)cc1 (stereo not given) is greater than or equal to 20 µM.
1

----------
- Test system: SK-MEL-2 melanoma
- experimentalDetails: NCI tumour cell line growth inhibition, 48 h
measure: TGI

Below, 5 compounds whose answers are already recorded.
compound: CC1(C)CCC[C@]2(C)[C@@H]1CC[C@@]13O[C@@H]1C1=C(CO)C(=O)O[C@]14O[C@@H]4[C@@H]23
experimentalSystem: SK-MEL-2 melanoma
TGI: 31.6 µM

compound: COc1ccc(/C=C2/SC(=Nc3c(C)nn(-c4ccccc4)c3N)NC2=O)cc1
experimentalSystem: SK-MEL-2 melanoma
TGI: 17.2 µM

compound: COc1ccc2c(c1)OCC1(O)Cc3ccccc3OC21 (configuration not stated)
experimentalSystem: SK-MEL-2 melanoma
TGI: > 100 µM

compound: O=c1c2ccccc2oc2c1ccc1ncccc12
experimentalSystem: SK-MEL-2 melanoma
TGI: > 100 µM

compound: Cc1c(-c2ccccc2)c(C#N)c2nnn(-c3ccccc3)c(=O)n12
experimentalSystem: SK-MEL-2 melanoma
TGI: > 100 µM

Recorded TGI for COCCNC(=O)C1C(=O)N(CCOC)C(=O)/C1=N/N (configuration not stated) on SK-MEL-2 melanoma was > 100 µM

Recorded TGI for "CCNC(=S)N/N=C/c1cc(OC)ccc1O" on SK-MEL-2 melanoma was > 100 µM

Recorded TGI for COC1CC(OC2OC(CO)C(O)C(O)C2O)/C(=C\C#N)C(O)C1OC (configuration not stated) on SK-MEL-2 melanoma was > 100 µM

Recorded TGI for "CC(C)(C)c1cc(C(O)(C(=O)O)C(=O)O)cc(C(C)(C)C)c1O" on SK-MEL-2 melanoma was > 100 µM

Recorded TGI for O=C(NCC1Nc2ccncc2S(=O)(=O)N1)c1ccc(Br)cc1 (configuration not stated) on SK-MEL-2 melanoma was 57.4 µM

Recorded TGI for "O=S(=O)(c1cc(Cl)ccc1Cl)N1CCN(S(=O)(=O)c2cc(Cl)ccc2Cl)CC1" on SK-MEL-2 melanoma was > 100 µM

Recorded TGI for COC1CCC(=C2C(=O)OC(C)(C)OC2=O)N1 (configuration not stated) on SK-MEL-2 melanoma was > 100 µM

Recorded TGI for "Cc1nc2c(cnn2-c2ccnc3c(C(F)(F)F)cccc23)c(=O)o1" on SK-MEL-2 melanoma was > 100 µM

Recorded TGI for "COCn1c(C)c(C)c2c(=O)oc(=O)[nH]c21" on SK-MEL-2 melanoma was > 100 µM

Recorded TGI for "COC(=O)C1=C(O)C(O)=C(C(=O)OC)CC1" on SK-MEL-2 melanoma was > 100 µM

Recorded TGI for "CC(C)Oc1cc(OCC(=O)O)cc(C(=O)N(CCC(N)=O)C(=O)Nc2ccc(C(=O)O)cc2OC(C)C)c1" on SK-MEL-2 melanoma was > 100 µM

Recorded TGI for "C=C1C(=O)O[C@@H]2[C@@H]3O[C@@](C)(CC/C=C(\C)CCC[C@@H]2C)[C@H](O)C[C@@H]13" on SK-MEL-2 melanoma was 4.85 µM
